Biological target: T1, Human IL-23 (human, UniProt Q9NPF7 20-189; P29460 23-328)
T1 sequence (looked up) 1: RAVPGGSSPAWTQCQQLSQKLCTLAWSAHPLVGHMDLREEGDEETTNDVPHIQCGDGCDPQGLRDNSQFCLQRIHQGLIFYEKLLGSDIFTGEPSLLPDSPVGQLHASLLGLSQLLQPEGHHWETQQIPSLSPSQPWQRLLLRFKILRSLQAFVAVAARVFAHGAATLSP
T1 sequence (looked up) 2: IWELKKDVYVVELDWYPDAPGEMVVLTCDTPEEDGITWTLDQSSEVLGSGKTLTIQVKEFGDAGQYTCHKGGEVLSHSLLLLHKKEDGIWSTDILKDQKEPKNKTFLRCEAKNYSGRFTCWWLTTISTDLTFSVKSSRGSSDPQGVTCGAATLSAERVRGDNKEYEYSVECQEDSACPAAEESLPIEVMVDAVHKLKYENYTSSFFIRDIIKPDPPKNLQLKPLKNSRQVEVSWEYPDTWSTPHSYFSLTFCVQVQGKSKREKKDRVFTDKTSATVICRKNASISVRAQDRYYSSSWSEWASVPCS
Assay: cell-based or functional assay
metric-name: pSTAT3 IC50 (nM)

{"columns": ["binder", "metric-name", "value-observed"],
 "data": [
  ["Anti-IL-23 Adnectin 1866C02 (designed binder) MGVSDVPRDLEVVAATPTSLLISWDHNYTWYRYYRITYGETGGNSPVQEFTVPRGVDTATISGLKPGVDYTITVYAVTSSYKYDIQYPPISINYRTEIDKPSQHHHHHH", "pSTAT3 IC50 (nM)", "0.03 nM"],
  ["Anti-IL-23 Adnectin 1866D11 (designed binder) MGVSDVPRDLEVVAATPTSLLISWDHDYPYRRYYRITYGETGGNSPVQEFTVPKDVDTATISGLKPGVDYTITVYAVTSSYKYDIQYPPISINYRTEIDKPSQHHHHHH", "pSTAT3 IC50 (nM)", "0.03 nM"],
  ["Anti-IL-23 Adnectin 1241A05 (designed binder, 10Fn3-based Adnectin expressed in E. coli followed by a HIS6 tag; Fn3 domain is positions 3-96 of the entry; also called Clone 1241A05) MGVSDVPRDLEVVAATPTSLLISWNHNYSYYRYYRITYGETGGNSPVQEFTVPRGVATATISGLKPGVDYTITVYAVTSSYKYDMQYSPISINYRTEIDKPSQHHHHHH", "pSTAT3 IC50 (nM)", "30.7 nM"],
  ["Anti-IL-23 Adnectin 1454H11 (designed binder, 10Fn3-based Adnectin expressed in E. coli followed by a HIS6 tag; Fn3 domain is positions 3-96 of the entry) MGVSDVPRDLEVVAATPTSLLISWEHDYPYRRYYRITYGETGGNSPVQEFTVPREDSTATISGLKPGVDYTITVYAVTSSYKYDMQYSPISINYRTEIDKPSQHHHHHH", "pSTAT3 IC50 (nM)", "0.45 nM"]
]}
